assay: gradient 5% acetonitrile 3 min, to 50% in 2 min, to 85% in 15 min, held 3 min, 100 µL/min; settings: column: Zorbax Extend-C18 2.1 x 50 mm; eluents: water / acetonitrile, 0.1% formic acid
assay endpoint: RP-LC retention time (s)

a. CCc1nc(-c2cc(S(=O)(=O)NCC(=O)NC3CC3)c(C)s2)no1
b. CCc1nc2cc(-c3noc(-c4c(F)cccc4Cl)n3)ccc2o1
Given the listed records, identify the one among a and b with higher RP-LC retention time. Could you answer with the label of the item you picked?
b
(b: 1190 s, a: 740 s)

1. CCCN1C(=O)COc2ccc(-c3csc(NC(C)=O)n3)cc21
2. CCc1nc(-c2ccc(-c3noc(COc4ccc(F)cc4)n3)cc2)cs1
From the recorded data, which exceeds the other in RP-LC retention time: 1 or 2 ? Identify your selection by its label.
2

1. Cc1nn(C(C)C)c(C)c1S(=O)(=O)N1CCN(C(=O)C(C)Oc2ccccc2)CC1 (stereo not drawn)
2. COc1nn(C)cc1C(=O)Nc1nc(-c2ccc3c(c2)CCCC3)cs1
Of the two listed items, which has the higher RP-LC retention time? First: 1 Second: 2 Could you answer with the label of the item you picked?
2

a. Cc1ccc(-c2nc3n(CC(=O)NC4CC4)c4c(c(=O)n3n2)CCC4)cc1
b. Cc1cccc(-c2noc(-c3nn(CC(=O)NC4CCCC4)c4ccccc34)n2)c1
a or b : whose RP-LC retention time is greater? Write the label of whichever entry you select.
b
(b: 1180 s, a: 702 s)

a. CCOC(=O)c1c(S(=O)(=O)N2CCC(C(=O)Nc3cc(C)ccn3)CC2)c(C)n(C)c1C
b. Cc1ccc(NC(=O)N2CCCC(C)(C(=O)NCc3ccccc3C)C2)cc1C (stereo not drawn)
So which one has the bigger RP-LC retention time here, a or b ? Identify your pick by its label.
b
(b: 978 s, a: 644 s)

Cited source for all entries: the METLIN SMRT retention time set (Domingo-Almenara et al. 2019)
